Measured values drawn from patent US7544664B2 for this set.

test system: HCT116: human colon carcinoma; assay: cells; assay type: cell-based; conditions: HCT116 colon; 48 h incubation; read-out: IC50 values
property_label: IC50
Answer format: number, then unit.

-- ask What value of measured IC50 is listed for O=c1[nH]cc(F)c(=O)[nH]1 [5FUra] ?
-- reply 8.5 µM

* * *

Reported IC50 values are given for each entry in this list.
test system: OVCAR-3: human ovary carcinoma; assay: cells; assay type: cell-based; settings: Homo sapiens; OVCAR-3 ovary carcinoma; 1 h incubation + 72 h post-incubation
State just the number; it will be interpreted in µM.

input_smiles	IC50 [µM]
CC(=O)O[C@H]1C(=O)[C@@]2(C)[C@H]([C@H](OC(=O)c3ccccc3)[C@]3(O)C[C@H](OC(=O)[C@H](O)[C@@H](NC(=O)c4ccccc4)c4ccccc4)C(C)=C1C3(C)C)[C@]1(OC(C)=O)CO[C@@H]1C[C@@H]2O	0.04

-- ask What value of measured IC50 is listed for COc1cccc2c1C(=O)c1c(O)c3c(c(O)c1C2=O)C[C@@](O)(C(=O)CO)C[C@@H]3O[C@H]1C[C@H](N)[C@H](O)[C@H](C)O1 ?
-- reply 7.3
